- Test system: S. pneumoniae D39
- experimentNotes: In vitro antimicrobial activity, MIC by broth micro-dilution
- Assay type: cell-based
- testSettings: Streptococcus pneumoniae, D39; read-out: MIC class, S. pneumoniae D39
Kindly supply the reported MIC values for the records listed here.

>  <smiles>
CCCCCCCCCCCCCCCC(=O)N(C)[C@H](CO)C(=O)N[C@H](C)C(=O)NCC(=O)N(C)[C@@H]1C(=O)N[C@@H](C)C(=O)N[C@H](C(=O)N[C@H](CO)CCC)Cc2ccc(O)c(c2)-c2cc1ccc2O

>  <MIC>
16 to 64 µg/mL

$$$$

Need MIC, item `CCCCCCCCCCCCCCCC(=O)N(C)[C@H](CO)C(=O)N[C@H](C)C(=O)NCC(=O)N(C)[C@@H]1C(=O)N[C@@H](C)C(=O)N[C@H](C(=O)O)Cc2ccc(OC)c(c2)-c2cc1ccc2OC`
16 to 64 µg/mL
